# test.target: Torsin-1A (Homo sapiens) (UniProt O14656)
# Sequence (O14656 whole entry, looked up): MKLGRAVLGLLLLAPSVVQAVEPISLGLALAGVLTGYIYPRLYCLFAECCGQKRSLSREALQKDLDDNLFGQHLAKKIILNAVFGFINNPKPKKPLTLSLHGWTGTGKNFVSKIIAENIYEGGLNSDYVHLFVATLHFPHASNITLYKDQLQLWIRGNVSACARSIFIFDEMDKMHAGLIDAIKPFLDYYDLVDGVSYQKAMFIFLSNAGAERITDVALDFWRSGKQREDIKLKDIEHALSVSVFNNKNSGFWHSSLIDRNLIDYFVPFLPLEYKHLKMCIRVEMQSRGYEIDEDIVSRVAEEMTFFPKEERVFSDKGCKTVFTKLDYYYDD
# protocol.details: small-molecule binders of mutant TOR1A in lysate, primary screen, cell lysate, small-molecule microarray, COS7 lysate, 635/667 nm fluorescence (AID 1150);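 also: score pools 667 nm emission and signal to noise measuring lysate protein binding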
# assay.setup: COS7 hTOR1A mutant lysate, 635 nm fluorescence, higher = more signal
Reported composite z-score values for the following molecules.
readout.kind: composite z-score

[[record]]
molecule = "CCOC(=O)C[C@H]1[C@H](OC(=O)c2ccc(-c3ccccc3)cc2)[C@@H](NC(=O)c2ccc(-c3ccccc3)cc2)c2cc(OCCCO)ccc2N1C(=O)Cc1ccc(OC)cc1"
test_target = "Torsin-1A (Homo sapiens) (UniProt O14656)"
endpoint_value = 0.119

[[record]]
molecule = "C=CCOC(=O)[C@@H]1[C@H]2C(=O)O[C@H](c3ccccc3)[C@H](c3ccccc3)N2[C@H](c2ccc(OCCOC(=O)[C@@H]3C[C@@H]4C(=O)NCC(=O)N4[C@@H]3c3cccc(OCCO)c3)cc2)[C@@]12C(=O)Nc1ccc(I)cc12"
test_target = "Torsin-1A (Homo sapiens) (UniProt O14656)"
endpoint_value = 1.17

[[record]]
molecule = "CCCCC(CC)C(O)C1C=CC2C(=O)N(c3ccccc3)C(=O)C2N1Nc1ccccc1 (stereo not given)"
test_target = "Torsin-1A (Homo sapiens) (UniProt O14656)"
endpoint_value = 0.178

[[record]]
molecule = "COc1ccc(C#Cc2ccc3c(c2)[C@]2(C(=O)N3)[C@H](c3ccc(O)cc3)N3[C@H](c4ccccc4)[C@H](c4ccccc4)OC(=O)[C@H]3[C@@H]2C(=O)NC[C@H](O)c2ccccc2)cc1"
test_target = "Torsin-1A (Homo sapiens) (UniProt O14656)"
endpoint_value = 0.488

[[record]]
molecule = "O=C1O[C@H](c2ccccc2)[C@H](c2ccccc2)N2[C@H]1[C@@H](C(=O)N1CCN(c3ncccn3)CC1)[C@]1(C(=O)Nc3ccccc31)[C@H]2c1ccc(OCCO)cc1"
test_target = "Torsin-1A (Homo sapiens) (UniProt O14656)"
endpoint_value = 0.36

